Examples of molecules with documented viability, T/C follow.
# Tested on: NCI-H510 multicellular tumor spheroid growth, % test/control
# experiment_description: Anticancer human tumor NCI-H510 cell line growth inhibition [Asc];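 further: spheroids exposed to agents for 7 days; 100% = DMSO vehicle control wells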
# condition_info: second compound 0.316 µM; first compound 1 µM; active compounds read low

Worked cases, viability, T/C given:
>>> measured("C=C(F)C(=O)N1CCN(c2nc(OCC3CCCN3C)nc3c2CCN(c2cccc4cccc(Cl)c24)C3)CC1CC#N (stereo not drawn) + Cc1c(S(C)(=O)=O)c(-c2cc(F)cc(N3CCN(c4ccc(NS(=O)(=O)c5ccc(NC(CCN6CCC(C(=O)OCCCP(=O)(O)O)CC6)CSc6ccccc6)c(S(=O)(=O)C(F)(F)F)c5)cc4)CC3)c2)c(-c2ccc(Cl)cc2)n1C(C)C")
"48.9%"
>>> measured("C#Cc1c(F)ccc2cc(O)cc(-c3ncc4c(N5CC6CCC(C5)N6)nc(OCC56CCCN5CC(F)C6)nc4c3F)c12 (stereo not drawn) + CNC(C)C(=O)NC1CN(S(=O)(=O)c2cccc(S(=O)(=O)N3CCC4CCC(C(=O)NC(c5ccccc5)c5ccccc5)N4C(=O)C(NC(=O)C(C)NC)C3)c2)CCC2CCC(C(=O)NC(c3ccccc3)c3ccccc3)N2C1=O")
"104%"

# context switch: different molecule, same viability, T/C
Recall the reported viability, T/C of CCN1CCN(Cc2ccc(Nc3ncc(F)c(-c4cc(F)c5nc(C)n(C(C)C)c5c4)n3)nc2)CC1 + Cc1c(S(C)(=O)=O)c(-c2cc(F)cc(N3CCN(c4ccc(NS(=O)(=O)c5ccc(NC(CCN6CCC(C(=O)OCCCP(=O)(O)O)CC6)CSc6ccccc6)c(S(=O)(=O)C(F)(F)F)c5)cc4)CC3)c2)c(-c2ccc(Cl)cc2)n1C(C)C when tested on NCI-H510 multicellular tumor spheroid growth, % test/control.
87.8%
